Data provenance is the supplement of paper PMC12667976.

We begin with a simple list: items and their reported AIRE transcriptional activation functional score.
B1: library; numbered along this chain (parent)
chain: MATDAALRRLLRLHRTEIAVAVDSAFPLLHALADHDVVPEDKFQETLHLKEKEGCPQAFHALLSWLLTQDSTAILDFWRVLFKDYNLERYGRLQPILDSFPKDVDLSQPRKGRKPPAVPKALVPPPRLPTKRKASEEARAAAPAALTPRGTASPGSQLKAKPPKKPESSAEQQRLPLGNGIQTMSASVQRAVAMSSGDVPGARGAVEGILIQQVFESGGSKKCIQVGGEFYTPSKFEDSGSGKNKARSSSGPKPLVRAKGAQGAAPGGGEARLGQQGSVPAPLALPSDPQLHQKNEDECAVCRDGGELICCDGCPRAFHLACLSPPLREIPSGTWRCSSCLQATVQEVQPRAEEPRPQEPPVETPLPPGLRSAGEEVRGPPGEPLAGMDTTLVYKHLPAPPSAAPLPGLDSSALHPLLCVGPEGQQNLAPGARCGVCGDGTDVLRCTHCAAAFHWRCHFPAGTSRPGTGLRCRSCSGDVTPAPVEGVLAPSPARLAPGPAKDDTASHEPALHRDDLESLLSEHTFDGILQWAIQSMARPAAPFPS

# Variants of: B1
# EXPERIMENT DESCRIPTION: AIRE transcriptional activation functional score (insulin promoter-GFP; nonsense median 0, synonymous median 1) (normalised score); higher = higher AIRE activity (more reporter activation)
# RECORDED CONDITIONS: with insulin promoter-GFP reporter in HEK293
MEASURED ENDPOINT: AIRE transcriptional activation functional score

INSERT INTO assay_data (mutant_name, result) VALUES
  ('E517R', 0.985),
  ('Y394P', 1.43),
  ('N86M', 1.34),
  ('A170R', 1.29),
  ('H507N', 1.19),
  ('R328T', 0.764),
  ('C340S', 1.52),
  ('T147C', 0.358),
  ('L520P', -0.00959),
  ('A496G', 0.999),
  ('P116A', 0.756),
  ('E216C', 0.558),
  ('P381E', 1.26),
  ('Q346I', 1.01),
  ('Y231C', 0.601),
  ('I224L', 0.689),
  ('K102T', 1.28),
  ('A500C', 1.07),
  ('Q425L', 1.18),
  ('H448N', 1.18),
  ('P115K', -0.166),
  ('P483A', 0.722),
  ('P266Q', 0.916),
  ('V443Q', 0.368),
  ('R538K', 1.18),
  ('E207T', 0.3),
  ('L32I', -0.434),
  ('L428Q', 1.01),
  ('T364S', 0.643),
  ('P365F', 1.36),
  ('P124I', 1.71),
  ('H35E', -0.848),
  ('E136S', 0.919),
  ('L11E', -0.17),
  ('A193Y', 1.05),
  ('K114N', 0.632),
  ('G431T', 1.21),
  ('F59E', 0.561),
  ('E363D', 0.917),
  ('D198T', 1.51),
  ('P176R', 1.63),
  ('D442H', 0.38),
  ('Y394K', 0.301),
  ('S153Y', 0.691),
  ('M194Q', 0.907),
  ('D76H', 0.235);
